- targetEntity: LukSF (Staphylococcus aureus)
- method: cell-based or functional assay
Each record here notes measured IC50 for LukSF.
Could you give me the number in µg/mL? Just the number is fine.

Illustrative cases are given below, each with its answer.
SAN481-SYT-YTE (antibody, V domains shown, also called QD5) VH: QLQLVESGGGAVQPGRSLKLSCAASGFTFSTYAMHWVRQAPGRGLEWVAVTSFDGSNEYYIDSVKGRFTISRDNTKNTLYLQMTGLRVEDTALYFCARDEYTGGWYSVGYWGQGTLVTVSS VL: QSVLTQPPSASGTPGQRVTISCSGSSYNIGSNYVYWYQQFPGTAPKLLISRSIQRPSGVPDRFSGSKSVTSASLAISGLRSEDEADYYCAAWDDSLRAWVFGGGTKLTVLG; 0.162
SAN481-SY-YTE (antibody, V domains shown, also called QD2; SAN481VL26S32Y-YTE) VH: QLQLVESGGGAVQPGRSLKLSCAASGFNFSTYAMHWVRQAPGRGLEWVAVTSFDGSNEYYIDSVKGRFTISRDNTKNTLYLQMTGLRVEDTALYFCARDEYTGGWYSVGYWGQGTLVTVSS VL: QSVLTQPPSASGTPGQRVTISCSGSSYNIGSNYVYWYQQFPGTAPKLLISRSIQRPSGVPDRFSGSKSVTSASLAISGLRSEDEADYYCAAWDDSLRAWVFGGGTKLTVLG; 0.183
SAN481-T-YTE (antibody, V domains shown, also called QD3; SAN481VH28T-YTE) VH: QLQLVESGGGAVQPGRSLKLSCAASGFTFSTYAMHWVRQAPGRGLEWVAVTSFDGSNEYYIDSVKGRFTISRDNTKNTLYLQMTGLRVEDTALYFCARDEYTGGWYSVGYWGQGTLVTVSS VL: QSVLTQPPSASGTPGQRVTISCSGNSYNIGSNSVYWYQQFPGTAPKLLISRSIQRPSGVPDRFSGSKSVTSASLAISGLRSEDEADYYCAAWDDSLRAWVFGGGTKLTVLG; 0.166

Reported IC50 for LukSF for SAN481-TF-YTE (antibody, V domains shown, also called QD4; SAN481-VH28T100E-YTE) VH: QLQLVESGGGAVQPGRSLKLSCAASGFTFSTYAMHWVRQAPGRGLEWVAVTSFDGSNEYYIDSVKGRFTISRDNTKNTLYLQMTGLRVEDTALYFCARDEYTGGFYSVGYWGQGTLVTVSS VL: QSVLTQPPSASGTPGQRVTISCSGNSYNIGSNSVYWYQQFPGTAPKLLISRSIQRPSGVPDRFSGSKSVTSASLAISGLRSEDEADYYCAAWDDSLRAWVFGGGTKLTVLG was 0.811
